- SYSTEM_NAME: N-terminal HiBiT tagged BCL6 (Homo sapiens, UniProt P41182)
- Construct: expressed in transfected cells; host or cells: HT1080 (ATCC CCL-121), stably transduced with lentivirus pLV-UBC-N-HiBiT-BCL6-PGK-puro
- PROTOCOL_SUMMARY: HiBiT based degradation assay
- Assay type: cell-based
- PROTOCOL_CONDITIONS: HT1080 cells expressing N-terminal HiBiT tagged BCL6; 5 hours of incubation; BCL6 degradation normalized with DMSO control
METRIC_NAME: Ymin (5 hr)

Consider the following illustrative entries.
CNC(=O)COc1cc2cc(Nc3nc(N4CCC(F)(CN5CCC(c6cccc7c(C8CCC(=O)NC8=O)nn(C)c67)CC5)CC4)ncc3Cl)cnc2n(C(C)C)c1=O (centres unmarked) : ++++ (Ymin < 30%)
CNC(=O)COc1cc2cc(Nc3cc(N4CCC(CN5CCN(c6cccc7c(C8CCC(=O)NC8=O)nn(C)c67)[C@H](C)C5)CC4)ncc3Cl)cnc2n(C(C)C)c1=O (some centres unmarked) [Compound 217a] : ++++ (Ymin < 30%)
CNC(=O)COc1cc2cc(Nc3nc(N4CCC(CN5C[C@H]6C[C@@H]5CN6c5cccc6c(C7CCC(=O)NC7=O)nn(C)c56)CC4)ncc3Cl)cnc2n(C(C)C)c1=O (some centres unmarked) [Compound 175a] : +++ (30% ≤ Ymin < 50%)
CNC(=O)COc1cc2cc(Nc3nc(N4CCC5(CC4)CN(CC4CCN(c6cccc7c(C8CCC(=O)NC8=O)nn(C)c67)CC4)C5)ncc3Cl)cnc2n(C)c1=O (centres unmarked) : ++++ (Ymin < 30%)
CNC(=O)COc1cc2cc(Nc3nc(N4CCN(C[C@H]5CCN(c6ccc7c(C8CCC(=O)NC8=O)nn(C)c7c6)C5)[C@@H](C)C4)ncc3Cl)cnc2n(C(C)C)c1=O (some centres unmarked) [Compound 216a] : ++ (50% ≤ Ymin < 70%)
CNC(=O)COc1cc2cc(Nc3nc(N4CCC(F)(CN5CCC(c6ccc7c(C8CCC(=O)NC8=O)nn(C)c7c6)CC5)CC4)ncc3Cl)cnc2n(C(C)C)c1=O (centres unmarked) : ++++ (Ymin < 30%)

compound CNC(=O)COc1cc2cc(Nc3nc(N4CC5(CC[C@H](Oc6ccc7c(C8CCC(=O)NC8=O)nn(C)c7c6)[C@H](C)C5)C4)ncc3Cl)cnc2n(C(C)C)c1=O (single isomer, unassigned) [Compound 185a] , Ymin (5 hr) observed: ++++ (Ymin < 30%)

Ymin (5 hr) reported for this compound CNC(=O)COc1cc2cc(Nc3nc(N4CC[C@H](CNc5ccc6c(C7CCC(=O)NC7=O)nn(C)c6c5)C4)ncc3Cl)cnc2n(C)c1=O (some centres unmarked) [Compound 123a] : ++ (50% ≤ Ymin < 70%)

Notebook: CNC(=O)COc1cc2cc(Nc3nc(N4CCN(C[C@H]5CCN(c6ccc7c(C8CCC(=O)NC8=O)nn(C)c7c6)C5)CC4)ncc3Cl)cnc2n(C(C)C)c1=O (some centres unmarked) [Compound 228b] , Ymin (5 hr) read as ++ (50% ≤ Ymin < 70%)

Kindly note the recorded Ymin (5 hr) for CNC(=O)COc1cc2cc(Nc3nc(N4CCC(CN5CCN(c6ccc7c(C8CCC(=O)NC8=O)nn(C)c7c6)C[C@H]5CO)CC4)ncc3Cl)cnc2n(C(C)C)c1=O (some centres unmarked) [Compound 232a] , which is +++ (30% ≤ Ymin < 50%)

Entry CNC(=O)COc1cc2cc(Nc3nc(N4CCC(CN5CCN(c6ccc7c(C8CCC(=O)NC8=O)nn(C)c7c6)C[C@@H]5CO)CC4)ncc3Cl)cnc2n(C(C)C)c1=O (some centres unmarked) [Compound 232b] — recorded Ymin (5 hr) = +++ (30% ≤ Ymin < 50%)

The measured values listed here are drawn from patent US20260241012A1.
